System: H-322 (lung carcinoma)
Assay: Sulforhodamine B cytotoxicity assay, H-322
Format: cell-based
Settings: NCI-H322, 72 hours, SRB
measured.metric: IC50 (nM)
// note: answer is a bare numeric in nM

input: Sample "COc1cccc2c1C(=O)c1c(O)c3c(c(O)c1C2=O)C[C@@](O)(C(C)=O)C[C@@H]3O[C@H]1C[C@H](N)[C@H](O)[C@H](C)O1" — what was its IC50?
output: 1600

* * *

Tested on: ATCC Ovcar 3 (Ovarian carcinoma)
Test: Sulforhodamine B cytotoxicity assay, Ovcar 3
Format: cell-based
Conditions: 72 hours, SRB
measured.metric: pIC50
Interpret pIC50 as the negative base-10 log of the concentration measured in mol/L.

input: Sample COC(=O)NC1=C2/C(=C\CSSSC)[C@](O)(C#C/C=C\C#C[C@@H]2O)CC1=O [(-)-calicheamicinone, (-)-Calicheamicinone] — what was its pIC50?
output: 4.60

* * *

Test system: ATCC P-388 (Mouse leukemia)
Experiment: Sulforhodamine B cytotoxicity assay, P-388
Format: cell-based
Settings: 72 hours, SRB
measured.metric: pIC50
Interpret pIC50 as the negative base-10 log of the concentration measured in mol/L.

input: Sample COC(=O)NC1=C2/C(=C\CSSSC)[C@](O)(C#C/C=C\C#C[C@@H]2O)CC1=O [(-)-calicheamicinone, (-)-Calicheamicinone] — what was its pIC50?
output: 6.41

* * *

Test system: ATCC Molt-4 (T-cell leukemia)
Assay: Sulforhodamine B cytotoxicity assay, Molt-4
Format: cell-based
Conditions: Homo sapiens, 72 hours, SRB
measured.metric: pIC50
Interpret pIC50 as the negative base-10 log of the concentration measured in mol/L.

input: Sample "COc1cccc2c1C(=O)c1c(O)c3c(c(O)c1C2=O)C[C@@](O)(C(C)=O)C[C@@H]3O[C@H]1C[C@H](N)[C@H](O)[C@H](C)O1" — what was its pIC50?
output: 10.00

From: patent US5264586A
